# TARGET_OR_TEST_SYSTEM: T1, recombinant human α5β1 integrin (rh-α5β1) (Homo sapiens, UniProt P05556+P08648)
# T1 construct: purchased R&D Systems 3230-A5
# T1 sequence (P08648 42-894 limits assumed): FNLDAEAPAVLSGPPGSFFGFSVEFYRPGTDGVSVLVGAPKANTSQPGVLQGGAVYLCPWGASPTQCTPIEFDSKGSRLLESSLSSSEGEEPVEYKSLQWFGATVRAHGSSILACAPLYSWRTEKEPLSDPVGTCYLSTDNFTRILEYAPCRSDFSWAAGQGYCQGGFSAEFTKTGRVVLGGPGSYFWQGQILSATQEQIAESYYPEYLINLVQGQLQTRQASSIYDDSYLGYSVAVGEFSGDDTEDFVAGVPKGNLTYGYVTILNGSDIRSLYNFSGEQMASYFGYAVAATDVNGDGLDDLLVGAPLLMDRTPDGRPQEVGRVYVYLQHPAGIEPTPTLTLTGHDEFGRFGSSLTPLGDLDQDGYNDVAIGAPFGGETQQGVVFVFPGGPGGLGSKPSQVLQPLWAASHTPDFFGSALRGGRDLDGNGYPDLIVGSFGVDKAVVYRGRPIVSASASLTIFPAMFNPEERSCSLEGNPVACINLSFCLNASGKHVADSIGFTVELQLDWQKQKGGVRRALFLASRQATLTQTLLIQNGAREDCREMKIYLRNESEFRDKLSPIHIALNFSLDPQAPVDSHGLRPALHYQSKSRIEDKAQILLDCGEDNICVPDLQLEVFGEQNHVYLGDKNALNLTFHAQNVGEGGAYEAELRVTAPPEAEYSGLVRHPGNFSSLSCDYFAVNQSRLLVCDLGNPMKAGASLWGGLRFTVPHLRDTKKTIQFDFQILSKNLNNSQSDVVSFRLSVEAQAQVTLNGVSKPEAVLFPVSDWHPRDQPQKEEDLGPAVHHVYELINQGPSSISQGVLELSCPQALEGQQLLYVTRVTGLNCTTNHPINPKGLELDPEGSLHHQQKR
# T1 sequence (P08648 895-995 limits assumed): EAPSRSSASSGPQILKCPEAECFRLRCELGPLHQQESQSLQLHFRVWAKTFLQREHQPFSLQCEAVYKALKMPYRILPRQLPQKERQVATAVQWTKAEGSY
# T1 sequence (P05556 21-728 limits assumed): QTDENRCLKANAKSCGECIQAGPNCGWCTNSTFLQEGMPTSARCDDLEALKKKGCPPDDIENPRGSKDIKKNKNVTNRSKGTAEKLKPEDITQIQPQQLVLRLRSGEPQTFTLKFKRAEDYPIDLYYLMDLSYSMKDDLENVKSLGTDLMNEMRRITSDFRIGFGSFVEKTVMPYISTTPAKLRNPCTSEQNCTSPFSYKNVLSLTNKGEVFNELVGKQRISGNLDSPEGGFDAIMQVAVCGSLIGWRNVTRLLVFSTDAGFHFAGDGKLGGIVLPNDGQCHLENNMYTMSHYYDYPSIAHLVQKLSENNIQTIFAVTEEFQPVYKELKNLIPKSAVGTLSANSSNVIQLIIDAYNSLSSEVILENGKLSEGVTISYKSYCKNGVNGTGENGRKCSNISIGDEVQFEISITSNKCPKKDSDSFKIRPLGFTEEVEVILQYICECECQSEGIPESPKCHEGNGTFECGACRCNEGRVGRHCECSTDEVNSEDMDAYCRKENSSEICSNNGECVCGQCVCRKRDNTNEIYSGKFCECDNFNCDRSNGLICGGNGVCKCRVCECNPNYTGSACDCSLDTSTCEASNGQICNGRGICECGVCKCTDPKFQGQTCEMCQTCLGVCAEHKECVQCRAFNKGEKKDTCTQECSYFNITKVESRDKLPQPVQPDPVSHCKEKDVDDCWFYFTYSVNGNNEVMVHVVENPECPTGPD
# RUN_DESCRIPTION: Plate-based ELISA reactivity to rh-α5β1
# Format: binding
# CONDITION_CONTEXT: selected for further characterization among α5 specific hybridomas (28 selected)
# Experimental: The 249 positive hybridoma supernatants selected as described in Example 1 were screened for reactivity to rh-α5β1 in a plate-based ELISA. Immulon4 HBX ELISA 96-well plates (Thermo Fisher Scientific, Waltham, MA, cat. no. 3855) were coated with rh-α5β1 (R&D Systems, Minneapolis, MN 55413, cat. no. 3230-A5), at 1 μg/mL in PBS supplemented with 0.5 mM MgCl2, MnCl2 and CaCl2 and incubated overnight at 4° C. […] Absorbance 450 nm was measured.

- MOLECULE: "A2-9A11: hybridoma clone positive on K562 cells (antibody, V domains shown) VH: QVQLKESGPGLVAPSQSLSITCTISGFSLTTYGVHWVRQPPGKGLEWLVVIWSDGSTTYNSALKSRLNITKDNSKSQVFLKMNSLQTDDTAMYYCVRHGGLLRRDAMDYWGQGTSVTVSS VL: QIVLTQSPAIMSASLGERVTMTCTASSSVSSNSFHWYQQKPGSSPKLWLYSTSNLASGVPARFSGSGSGTSYSLTISSMEAEDAATYYCHQYLRSPPTFGGGTKLEIK"
  Selected Human α5 Specific: "Yes"
